# Test system: ER/NF-κB
# protocolText: ER/NF-κB luciferase reporter in Ad5-wt-ERα infected HAECT-1 cells
# Type: cell-based, human
# assaySetup: Homo sapiens, HAECT1, IL-1β, read-out: ER/NFκB IC50
For each entry below, report its IC50 value.
Return type: number; implicit unit nM.

Identify the reported IC50 for the following entry. C[C@@H]1c2ccccc2-c2ccccc2N1S(=O)(=O)c1ccc(O)cc1 (single isomer, unassigned)
1510

Identify the reported IC50 for the following entry. CCC1c2ccccc2-c2cc(-c3ccccc3Cl)ccc2N1S(=O)(=O)c1ccc(O)c(C)c1 (stereo not drawn)
678

Identify the reported IC50 for the following entry. CCC1c2ccccc2-c2cc(Br)ccc2N1S(=O)(=O)c1ccc(O)cc1 (stereo not drawn)
186

Identify the reported IC50 for the following entry. CC1c2cc(Cl)ccc2-c2cc(Br)ccc2N1S(=O)(=O)c1ccc(O)cc1 (stereo not drawn)
120

Identify the reported IC50 for the following entry. CCC1c2cc(F)ccc2-c2ccccc2N1S(=O)(=O)c1ccc(O)cc1 (stereo not drawn)
27

Identify the reported IC50 for the following entry. CCC1c2ccccc2-c2cc(/C=C/c3ccccc3)ccc2N1S(=O)(=O)c1ccc(O)cc1 (stereo not drawn)
241

Identify the reported IC50 for the following entry. Cc1cc(S(=O)(=O)N2c3ccccc3-c3ccccc3C2C)cc(C)c1O (stereo not drawn)
1720

Identify the reported IC50 for the following entry. CCC1c2ccccc2-c2cc(-c3cccc4c3oc3ccccc34)ccc2N1S(=O)(=O)c1ccc(O)cc1 (stereo not drawn)
254

Identify the reported IC50 for the following entry. CCC1c2cc(F)ccc2-c2cc(-c3ccsc3)ccc2N1S(=O)(=O)c1ccc(O)cc1 (stereo not drawn)
68

Identify the reported IC50 for the following entry. CC1c2ccccc2-c2cc(Br)ccc2N1S(=O)(=O)c1ccc(O)cc1 (stereo not drawn)
54

Identify the reported IC50 for the following entry. CCC1c2ccccc2-c2cc(-c3ccccc3O)ccc2N1S(=O)(=O)c1ccc(O)c(C)c1 (stereo not drawn)
771

Identify the reported IC50 for the following entry. CC(C)(C)C1c2ccccc2-c2cc(Br)ccc2N1S(=O)(=O)c1ccc(O)cc1 (stereo not drawn)
58

Identify the reported IC50 for the following entry. CCC1c2ccccc2-c2cc(Br)ccc2N1S(=O)(=O)c1ccc(O)c(C)c1 (stereo not drawn)
831

Identify the reported IC50 for the following entry. O=S(=O)(c1ccc(O)cc1)N1c2ccccc2-c2ccccc2[C@H]1c1ccccc1 (single isomer, unassigned)
61

Identify the reported IC50 for the following entry. CCC1c2cc(F)ccc2-c2cc(-c3ccccc3)ccc2N1S(=O)(=O)c1ccc(O)cc1 (stereo not drawn)
60

Identify the reported IC50 for the following entry. CCC1c2c(C)cccc2-c2ccccc2N1S(=O)(=O)c1ccc(O)cc1 (stereo not drawn)
83

Identify the reported IC50 for the following entry. CCC1c2cc(F)ccc2-c2ccccc2N1S(=O)(=O)c1ccc(O)c(C)c1 (stereo not drawn)
815

Identify the reported IC50 for the following entry. O=S(=O)(c1ccc(O)cc1)N1c2ccccc2-c2ccccc2[C@@H]1c1ccccc1 (single isomer, unassigned)
168

Identify the reported IC50 for the following entry. CCC(=O)Oc1ccc(S(=O)(=O)N2c3ccccc3-c3ccc(F)cc3C2CC)cc1 (stereo not drawn)
423

Identify the reported IC50 for the following entry. O=S(=O)(c1ccc(O)cc1)N1c2ccc(Br)cc2-c2ccccc2C1c1ccccc1 (stereo not drawn)
682

Identify the reported IC50 for the following entry. CCC1c2ccccc2-c2cc(-c3ccsc3)ccc2N1S(=O)(=O)c1ccc(O)c(C)c1 (stereo not drawn)
226

Identify the reported IC50 for the following entry. CC1c2ccccc2-c2ccccc2N1S(=O)(=O)c1ccc(O)c(F)c1 (stereo not drawn)
1440

Identify the reported IC50 for the following entry. CCC1c2ccccc2-c2cc(-c3cccc(O)c3)ccc2N1S(=O)(=O)c1ccc(O)cc1 (stereo not drawn)
53

Identify the reported IC50 for the following entry. `CC(C)(C)[C@@H]1c2ccccc2-c2ccccc2N1S(=O)(=O)c1ccc(O)cc1`
16

Identify the reported IC50 for the following entry. CCC1c2ccccc2-c2cc(-c3ccccc3Cl)ccc2N1S(=O)(=O)c1ccc(O)cc1 (stereo not drawn)
434

Identify the reported IC50 for the following entry. CCC1c2cc(F)ccc2-c2ccccc2N1S(=O)(=O)c1ccc(OC(=O)CC(C)(C)C)cc1 (stereo not drawn)
764

Identify the reported IC50 for the following entry. CC(C)(C)C1c2ccccc2-c2ccccc2N1S(=O)(=O)c1ccc(O)cc1 (stereo not drawn)
108
